# maps each entry to its viability, T/C
# Tested on: 299254-011-R-J1-PDC complex spheroids viability;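 also: spheroids exposed to the agents for seven days before readout; percent viability relative to DMSO vehicle control wells = 100%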
# runDescription: Anticancer human tumor 299254-011-R-J1-PDC patient-derived melanoma cell line growth inhibition [GQUAD]
# testParameters: second compound 0.316 µM; first compound 0.0316 µM; hits give low values

{"molecule": "O=C(c1cc(Cc2n[nH]c(=O)c3ccccc23)ccc1F)N1CCN(C(=O)C2CC2)CC1 + Cc1cnc(CNC(=O)c2c(=O)c3ccc(N4CCCN(C)CC4)nc3n3c2sc2ccccc23)cn1", "viability, T/C": "81.6%"}
{"molecule": "CC1COCCN1c1cc(-c2ccnn2C)c2ccnc(-c3ccn[nH]3)c2n1 (centres undefined) + Cc1cnc(CNC(=O)c2c(=O)c3ccc(N4CCCN(C)CC4)nc3n3c2sc2ccccc23)cn1", "viability, T/C": "40.9%"}
{"molecule": "COc1ccc([C@@H](O)c2cc(-c3ncnc4cc(N5CCOCC5)ccc34)c(F)cc2Cl)nn1 + Cc1cnc(CNC(=O)c2c(=O)c3ccc(N4CCCN(C)CC4)nc3n3c2sc2ccccc23)cn1", "viability, T/C": "84%"}
{"molecule": "CC1COCCN1c1cc(-c2ccnn2C)c2ccnc(-c3ccn[nH]3)c2n1 (centres undefined) + CN(C)c1ccc(Nc2c3ccc(NC(=O)CCN4CCCC4)cc3nc3cc(NC(=O)CCN4CCCC4)ccc23)cc1", "viability, T/C": "91.8%"}
{"molecule": "C#Cc1c(F)ccc2cc(O)cc(-c3ncc4c(N5CC6CCC(C5)N6)nc(OCC56CCCN5CC(F)C6)nc4c3F)c12 (centres undefined) + Cc1[nH]c2ccc(F)cc2c1-c1nc2c3cccnc3c3ncccc3c2[nH]1", "viability, T/C": "89.4%"}
{"molecule": "CC[C@@]1(O)C(=O)OCc2c1cc1n(c2=O)Cc2cc3c(CN(C)C)c(O)ccc3nc2-1 + Cc1[nH]c2ccc(F)cc2c1-c1nc2c3cccnc3c3ncccc3c2[nH]1", "viability, T/C": "106%"}
{"molecule": "COc1cc(C2c3cc4c(cc3C(OC3OC5COC(C)OC5C(O)C3O)C3COC(=O)C23)OCO4)cc(OC)c1O (centres undefined) + Cc1[nH]c2ccc(F)cc2c1-c1nc2c3cccnc3c3ncccc3c2[nH]1", "viability, T/C": "100%"}
{"molecule": "C=CCn1c(=O)c2cnc(Nc3ccc(N4CCN(C)CC4)cc3)nc2n1-c1cccc(C(C)(C)O)n1 + CN(C)c1ccc(Nc2c3ccc(NC(=O)CCN4CCCC4)cc3nc3cc(NC(=O)CCN4CCCC4)ccc23)cc1", "viability, T/C": "92.7%"}
{"molecule": "COc1ccc([C@@H](O)c2cc(-c3ncnc4cc(N5CCOCC5)ccc34)c(F)cc2Cl)nn1 + Cc1[nH]c2ccc(F)cc2c1-c1nc2c3cccnc3c3ncccc3c2[nH]1", "viability, T/C": "82.2%"}
{"molecule": "Cn1ncnc1[C@H]1c2n[nH]c(=O)c3cc(F)cc(c23)N[C@@H]1c1ccc(F)cc1 + Cc1cnc(CNC(=O)c2c(=O)c3ccc(N4CCCN(C)CC4)nc3n3c2sc2ccccc23)cn1", "viability, T/C": "99.1%"}
{"molecule": "CCc1c2c(nc3ccc(O)cc13)-c1cc3c(c(=O)n1C2)COC(=O)[C@]3(O)CC + Cc1cnc(CNC(=O)c2c(=O)c3ccc(N4CCCN(C)CC4)nc3n3c2sc2ccccc23)cn1", "viability, T/C": "67.8%"}
{"molecule": "Nc1ccn(C2OC(CO)C(O)C2(F)F)c(=O)n1 (centres undefined) + CN(C)c1ccc(Nc2c3ccc(NC(=O)CCN4CCCC4)cc3nc3cc(NC(=O)CCN4CCCC4)ccc23)cc1", "viability, T/C": "85.2%"}
{"molecule": "CC[C@@]1(O)C(=O)OCc2c1cc1n(c2=O)Cc2cc3c(CN(C)C)c(O)ccc3nc2-1 + CN(C)c1ccc(Nc2c3ccc(NC(=O)CCN4CCCC4)cc3nc3cc(NC(=O)CCN4CCCC4)ccc23)cc1", "viability, T/C": "90.1%"}
{"molecule": "CCCS(=O)(=O)Nc1ccc(F)c(C(=O)c2c[nH]c3ncc(-c4ccc(Cl)cc4)cc23)c1F + Cc1cnc(CNC(=O)c2c(=O)c3ccc(N4CCCN(C)CC4)nc3n3c2sc2ccccc23)cn1", "viability, T/C": "92.8%"}
